Experiment: Antiproliferative activity against mouse BA/F3 cells expressing Bcr-Abl E255K mutant after 3 days by MTS assay
Conditions: BaF3, 72 h
QUANTITY MEASURED: pIC50
Answers are plain numbers, as −log10 of the molar value.

I would be grateful if you could share the reported pIC50 for `Cc1cn(-c2cc(NC(=O)c3ccc(C)c(/C=C/n4cnc5c(NC6CC6)ncnc54)c3)cc(C(F)(F)F)c2)cn1` .
7.62

###

Assay: Cmax in CD rat at 15 mg/kg, po
Type: ADME, organism-based
Design: dose 15 mg/kg, route oral
Conditions: in vivo
Provide the recorded Cmax for the entries that follow.
Give bare numbers, in ng/mL.

{"SMILES DATA": "Cc1ccc(NC(=O)c2cccc(C(F)(F)F)c2)cc1/C=C/n1cnc2c(Nc3ccncc3)ncnc21", "UNIT OF MEASUREMENT": "ng/mL", "Cmax": 483}
{"SMILES DATA": "Cc1ccc(C(=O)Nc2cc(C(F)(F)F)ccn2)cc1/C=C/n1cnc2c(NC3CC3)ncnc21", "UNIT OF MEASUREMENT": "ng/mL", "Cmax": 23500}

Please give Cmax, item by item, for the list that follows.
1. Cc1ccc(NC(=O)c2cccc(C(F)(F)F)c2)cc1/C=C/n1cnc2c(NC3CC3)ncnc21
2. Cc1ccc(NC(=O)c2cccc(C(F)(F)F)c2)cc1/C=C/n1cnc2c(Nc3ccc(P(C)(C)=O)cc3)ncnc21
3. Cc1cn(-c2cc(NC(=O)c3ccc(C)c(/C=C/n4cnc5c(NC6CC6)ncnc54)c3)cc(C(F)(F)F)c2)cn1
4. Cc1ccc(C(=O)Nc2cccc(C(C)(C)C)c2)cc1/C=C/n1cnc2c(NC3CC3)ncnc21
5. Cc1ccc(C(=O)Nc2cc(C(C)(C)C)on2)cc1/C=C/n1cnc2c(NC3CC3)ncnc21
6. Cc1ccc(NC(=O)c2cccc(C(F)(F)F)c2)cc1/C=C/n1cnc2c(Nc3cccnc3)ncnc21

1. 2610
2. 63
3. 1750
4. 100
5. 1040
6. 387
